Entries and their one-nucleolus phenotype percent effect values follow.
Test system: MCF10A
Test: one-nucleolus phenotype percent effect (relative to siNT 0% and siNOL11 100%); higher = more cells with one nucleolus (ribosome biogenesis inhibition)
Conditions: 20 nM; 72 h
Give a bare numeral; the unit % is implied.

*Q* Please report the measured one-nucleolus phenotype percent effect for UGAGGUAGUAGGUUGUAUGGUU [hsa-let-7c]
*A* -17.3

*Q* Given the sequence CACUGCAGGACUCAGCAG [hsa-miR-4418] , write its reported one-nucleolus phenotype percent effect.
*A* -4.26

*Q* Identify one-nucleolus phenotype percent effect associated with the sequence CAUCUUACUGGGCAGCAUUGGA [hsa-miR-200b-5p]
*A* -11.1

*Q* Query one-nucleolus phenotype percent effect for CUUGGUUCAGGGAGGGUCCCCA [hsa-miR-659-3p]
*A* 37.6

*Q* Using the record for GAACGCCUGUUCUUGCCAGGUGG [hsa-miR-614] , state its measured one-nucleolus phenotype percent effect.
*A* -10.6

*Q* Output one-nucleolus phenotype percent effect of UUGGGAUGGUAGGACCAGAGGGG [hsa-miR-6728-5p]
*A* -15.8

*Q* Answer with reported one-nucleolus phenotype percent effect of AAACUCUACUUGUCCUUCUGAGU [hsa-miR-618]
*A* 10.9

*Q* Complete the entry with one-nucleolus phenotype percent effect for UGAGGGAGUAGGAUGUAUGGUU [hsa-miR-4510]
*A* 13.3

====

Test system: MCF10A
Test: percent viability (nuclei count relative to siNT); higher = more viable cells
Conditions: 20 nM; 72 h
endpoint: percent viability (%)
Kindly answer with a numeric value in %, unit omitted.

Consider the following illustrative entries.
chainSequence: UGGAGAGAGAAAAGAGACAGAAG [hsa-miR-4644]
percent viability [%]: 74.5

chainSequence: UGGGGGCUGGGAUGGGCCAUGGU [hsa-miR-6848-5p]
percent viability [%]: 22.5

chainSequence: UAUGUAACACGGUCCACUAACC [hsa-miR-411-3p]
percent viability [%]: 76

chainSequence: CAACCUCGAGGAUCUCCCCAGC [hsa-miR-3150b-5p]
percent viability [%]: 48.1

chainSequence: GAAAGCGCUUCUCUUUAGAGG [hsa-miR-518f-3p]
percent viability [%]: 63.6

chainSequence: GGGCUCACAUCACCCCAU [hsa-miR-4284]
percent viability [%]: 40.5

With those in mind, consider the next sequence.
*Q* Quick one: give measured percent viability for UAUUGCACUCGUCCCGGCCUCC [hsa-miR-92b-3p]
*A* 76.9

====

Documented percent viability across a set of sequences
Test system: MCF10A
Experiment: percent viability (nuclei count relative to siNT); higher = more viable cells
Conditions: 20 nM; 72 h
Write the value in % as a bare number.

chainSequence: AGCAGAAGCAGGGAGGUUCUCCCA [hsa-miR-298]
observedMeasurement: 25.9
//
chainSequence: AAACAAACAUGGUGCACUUCUU [hsa-miR-495-3p]
observedMeasurement: 93.6
//
chainSequence: CUACCCUCGGUCUGCUUACCACA [hsa-miR-7848-3p]
observedMeasurement: 41.7

*Q* Identify percent viability associated with the sequence AUCCUCUCUUCCCUCCUCCCAG [hsa-miR-7111-3p]
*A* 47.3

*Q* Dear colleague, please send me the reported percent viability for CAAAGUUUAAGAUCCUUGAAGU [hsa-miR-561-3p] when you can.
*A* 182

*Q* Using known records, supply percent viability for CCGCCUGAGCUAGCUGUGG [hsa-miR-6078]
*A* 89.3

*Q* State its percent viability: CUCCGUUUGCCUGUUUCGCUG [hsa-miR-1468]
*A* 112

*Q* Assign percent viability to the following record: AGAGGUUGCCCUUGGUGAAUUC [hsa-miR-377-5p]
*A* 22

*Q* Recall and state the measured percent viability for UGCUCAGGUUGCACAGCUGGGA [hsa-miR-3934-3p] .
*A* 52.8
